Please find below IC50 measurements for Glycogen synthase kinase-3 alpha (Homo sapiens), combined from several publications.
Please state the figure in µM; there is no need to write the unit.

Record excerpt, results attached:
Compound structure string: CC(C)(C)c1cc(NC(=O)Nc2ccc(Oc3ccnc(Nc4ccc5onc(N)c5c4)n3)c3ccccc23)n(-c2cccc(P(C)(C)=O)c2)n1
IC50 (µM): 0.073
--
Compound structure string: COCCOCCOCCNC(=O)c1cc(Nc2nccc(Oc3ccc(NC(=O)Nc4cc(C(C)(C)C)cc(NS(C)(=O)=O)c4OC)c4ccccc34)n2)cc(OC)c1
IC50 (µM): 0.516
--
Compound structure string: COc1c(NC(=O)Nc2ccc(Oc3ccnc(Nc4cncc(N(C)C)n4)c3)c3ccccc23)cc(C(C)(C)C)cc1P(C)(C)=O
IC50 (µM): 0.871
--
Compound structure string: Cc1ccncc1NC(=O)c1ccnn2c(NCC3CC3)cnc12
IC50 (µM): 0.03
--
Compound structure string: CC(C)(C)c1cc(NC(=O)Nc2ccc(Oc3ccnc(Nc4ccc5c(c4)NC(=O)C5)n3)c3ccccc23)n(-c2cccc(P(C)(C)=O)c2)n1
IC50 (µM): 0.205

Proceeding to the next compound to report its IC50.
Incoming: For Glycogen synthase kinase-3 alpha (Homo sapiens), give the measured IC50 of the entry CC(C)c1cc(NC(=O)Nc2ccc(Oc3ccnc(Nc4ccc5[nH]ncc5c4)n3)c3ccccc23)n(-c2ccc(=O)n(CCO)c2)n1
Outgoing: 2.53
